Sourced from paper PMC9352680

targetUnderTest: T1, PUF4 RNA-binding domain (Saccharomyces cerevisiae, UniProt P25339 537-888)
T1 sequence: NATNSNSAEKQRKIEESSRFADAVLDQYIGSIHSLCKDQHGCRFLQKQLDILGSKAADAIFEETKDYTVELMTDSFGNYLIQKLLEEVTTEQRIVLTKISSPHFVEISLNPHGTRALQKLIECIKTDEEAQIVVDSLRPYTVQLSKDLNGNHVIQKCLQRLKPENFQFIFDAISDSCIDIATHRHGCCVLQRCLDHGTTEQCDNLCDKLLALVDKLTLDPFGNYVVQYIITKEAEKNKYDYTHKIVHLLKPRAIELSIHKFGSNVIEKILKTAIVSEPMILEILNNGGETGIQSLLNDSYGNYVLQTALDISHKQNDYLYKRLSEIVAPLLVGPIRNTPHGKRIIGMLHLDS
assayProtocol: Mg; RNA-MaP; 20 mM Na-HEPES pH 7.4, 30 mM KOAc, 0.75 mM MgCl2, 0.1% Tween-20, 5% glycerol, 0.1 mg/mL BSA, 2 mM DTT; 25 C; 0.0125-409.6 nM protein
conditionLabel: tags: N-His6-TEV cleaved; C-SNAP kept, Cy3B-labelled; label: tethered on chip by stalled RNA polymerase
pKd: −log10 of the molar value.
Entries and their pKd values follow.

Known results for binders:
binder	valueKind	valueObserved
ACAAACUUUAAUAUUAACAAAC (ssRNA) [Ib_S3_P5E.1_K5.1_C5.1_H5.1_[G2T]_A5.1_[T5A]_F5.1_T5.1]	pKd	< 5.64
ACAAACACACACUAUAGCACAAAC (ssRNA) [Id_ii_S3_P3E.4_K3.3_C3.2_[C-2A]_[T-1C]_H3.3_A3.1_F3.1_T3.2_[T9G]_[A10C]]	pKd	< 5.64

Then this binder:
Exam item: Query (binder): Ib_S2_P5E.1_K5.1_C5.1_H5.1_[G2C]_A5.1_[T6A]_F5.1_T5.1 (ssRNA) RNA: UUUGAUUAAUAUGAUAUCGUUCUUUCUUCUAUAAUUAUUCUUUCUCGAUAUCAUAUUAAUCUUU ; field requested: pKd
Marked response: < 5.64
